The origin of these recorded values is ChEMBL document CHEMBL4715719.

Assay: Cytotoxicity against human QSG7701 cells assessed as inhibition of cell proliferation at 100 uM measured after 48 hrs by MTT assay relative to control
Assay type: cell-based
endpoint: inhibition at 48 h, 100 µM (%)

{"compound": "NCCCCNCCCNCC(=O)NCc1cccc2c(=O)cc(-c3cccc4ccccc34)oc12", "unit": "%", "reportedMeasurement": 22.4}
{"compound": "Cl.Cl.NCCCNCC(=O)NCc1cccc2c(=O)cc(-c3cccc4ccccc34)oc12", "unit": "%", "reportedMeasurement": 41.8}
{"compound": "CN(C)CCNCC(=O)NCc1cccc2c(=O)cc(-c3cccc4ccccc34)oc12", "unit": "%", "reportedMeasurement": 17.9}
{"compound": "O=c1c(O)c(-c2ccc(O)c(O)c2)oc2cc(O)cc(O)c12 [QUERCETIN]", "unit": "%", "reportedMeasurement": 36}
{"compound": "CCCCNCC(=O)NCc1cccc2c(=O)cc(-c3cccc4ccccc34)oc12", "unit": "%", "reportedMeasurement": 41.7}
{"compound": "NCCCCNCC(=O)NCc1cccc2c(=O)cc(-c3cccc4ccccc34)oc12", "unit": "%", "reportedMeasurement": 10.6}
{"compound": "NCCCCNCCCCNCC(=O)NCc1cccc2c(=O)cc(-c3cccc4ccccc34)oc12", "unit": "%", "reportedMeasurement": 74.4}

----------
Assay: Cytotoxicity against human QSG7701 cells assessed as inhibition of cell proliferation at 1 uM measured after 48 hrs by MTT assay relative to control
Format: cell-based

{"molecule": "O=C1c2c(O)ccc(O)c2C(=O)c2c(NCCNCCO)ccc(NCCNCCO)c21 [MITOXANTRONE]", "inhibition at 48 h, 1 µM": "75.8%"}

----------
Assay: Cytotoxicity against human QSG7701 cells assessed as inhibition of cell proliferation at 5 uM measured after 48 hrs by MTT assay relative to control
Assay type: cell-based
endpoint: inhibition at 48 h, 5 µM (%)

{"querySmiles": "O=C1c2c(O)ccc(O)c2C(=O)c2c(NCCNCCO)ccc(NCCNCCO)c21", "unit": "%", "reportedMeasurement": 82.5}

----------
Assay: Cytotoxicity against human QSG7701 cells assessed as inhibition of cell proliferation at 30 uM measured after 48 hrs by MTT assay relative to control
Format: cell-based
Listing: inhibition at 48 h, 30 µM of selected compounds
endpoint: inhibition at 48 h, 30 µM

{"querySmiles": "Cl.Cl.NCCCNCC(=O)NCc1cccc2c(=O)cc(-c3cccc4ccccc34)oc12", "reportedMeasurement": "< 5%"}
{"querySmiles": "NCCCCNCCCCNCC(=O)NCc1cccc2c(=O)cc(-c3cccc4ccccc34)oc12", "reportedMeasurement": "46.7%"}
{"querySmiles": "CCCCNCC(=O)NCc1cccc2c(=O)cc(-c3cccc4ccccc34)oc12", "reportedMeasurement": "19.6%"}
{"querySmiles": "NCCCCNCCCNCC(=O)NCc1cccc2c(=O)cc(-c3cccc4ccccc34)oc12", "reportedMeasurement": "< 5%"}
{"querySmiles": "CN(C)CCNCC(=O)NCc1cccc2c(=O)cc(-c3cccc4ccccc34)oc12", "reportedMeasurement": "< 5%"}
{"querySmiles": "O=c1c(O)c(-c2ccc(O)c(O)c2)oc2cc(O)cc(O)c12", "reportedMeasurement": "< 5%"}
{"querySmiles": "NCCCCNCC(=O)NCc1cccc2c(=O)cc(-c3cccc4ccccc34)oc12", "reportedMeasurement": "< 5%"}
